Origin of the recorded values: patent US11566028B2

In this section we review reported IC50 values for a set of compounds.
Target: FGFR2 (Homo sapiens (Human), UniProt P21802)
Sequence (P21802 22-821): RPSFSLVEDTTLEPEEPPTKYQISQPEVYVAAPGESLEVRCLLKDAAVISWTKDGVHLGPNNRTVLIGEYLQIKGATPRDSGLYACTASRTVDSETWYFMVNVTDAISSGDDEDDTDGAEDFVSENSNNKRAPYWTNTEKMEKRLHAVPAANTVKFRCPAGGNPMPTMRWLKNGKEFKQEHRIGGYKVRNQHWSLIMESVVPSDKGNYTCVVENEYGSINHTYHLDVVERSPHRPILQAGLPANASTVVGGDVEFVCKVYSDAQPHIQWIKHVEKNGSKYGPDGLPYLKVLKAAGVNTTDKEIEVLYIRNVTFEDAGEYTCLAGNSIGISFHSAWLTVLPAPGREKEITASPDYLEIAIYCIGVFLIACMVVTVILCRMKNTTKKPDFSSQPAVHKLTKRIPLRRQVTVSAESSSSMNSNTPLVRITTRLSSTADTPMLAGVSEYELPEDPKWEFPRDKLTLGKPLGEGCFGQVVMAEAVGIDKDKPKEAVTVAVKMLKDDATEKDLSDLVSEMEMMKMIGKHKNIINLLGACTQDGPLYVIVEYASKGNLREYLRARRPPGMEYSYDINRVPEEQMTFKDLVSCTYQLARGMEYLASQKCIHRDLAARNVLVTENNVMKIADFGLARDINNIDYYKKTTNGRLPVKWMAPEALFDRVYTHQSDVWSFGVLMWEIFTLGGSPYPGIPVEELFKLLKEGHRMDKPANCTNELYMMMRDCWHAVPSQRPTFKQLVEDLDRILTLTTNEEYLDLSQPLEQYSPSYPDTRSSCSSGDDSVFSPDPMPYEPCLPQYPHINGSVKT
Experiment: FGFR Enzymatic Assay (FRET peptide phosphorylation), FGFR2
Format: biochemical
Details: pre-incubated for 4 hours

// known answers, use as guide
compound | IC50
CCS(=O)(=O)c1cc(F)c(F)c(-c2cnn3cc(-c4cnn(C)c4)c(O[C@H]4CCOC4)nc23)c1 | < 10 nM
[2H]C([2H])([2H])NC(=O)c1cc(C)c(F)c(-c2cnn3cc(-c4cnn([C@@H]5CCN(C)C[C@H]5F)c4)c(O[C@H]4CCOC4)nc23)c1 | < 10 nM
CNC(=O)c1cc(F)c(F)c(-c2cnn3cc(-c4cnn(Cc5cccnc5)c4)c(N[C@H]4CCOC4)nc23)c1 | < 10 nM
CNC(=O)c1cc(C#N)cc(-c2cnn3cc(-c4ccncc4)c(O[C@H]4CCOC4)nc23)c1 | 10 to 30 nM
CNC(=O)c1cc(C#N)cc(-c2cnn3cc(-c4cccnc4)c(O[C@H]4CCOC4)nc23)c1 | 10 to 30 nM

Problem: State the recorded IC50 for this entry: `CNC(=O)c1cc(C)c(F)c(-c2cnn3cc(-c4cnc(N5CCN(C)CC5)o4)c(N[C@H]4CCOC4)nc23)c1`
Solution: < 10 nM

Problem: Another compound to check: CNC(=O)c1cccc(-c2cnn3cc(-c4cnn(C)c4)c(OC4CCOC4)nc23)c1 (racemic)
Solution: < 10 nM
